method-description: Cytotoxicity against human HL60 cells after 48 hrs by MTT assay
Type: functional, cell-based
experimental-context: HL-60, 48 h
measured-attribute: pIC50
Quick note: pIC50 means taking -log10 of the concentration in moles per liter.

Would you please look over these solved cases?
CC(C)(C)OC(=O)N[C@@H](CSC(Cl)=C(Cl)Cl)C(=O)N[C@@H]1[C@@H](O)[C@H](O)[C@@H](CO)O[C@@H]1SC1CCCCC1 :: 4.22
N[C@@H](CSC(Cl)=C(Cl)Cl)C(=O)N[C@@H]1[C@@H](O)[C@H](O)[C@@H](CO)O[C@H]1SC1CCCCC1 :: 3.95

Lab note: N[C@@H](CSC(Cl)=C(Cl)Cl)C(=O)N[C@@H]1[C@@H](O)[C@H](O)[C@@H](CO)O[C@@H]1SC1CCCCC1 gave pIC50 of 4.12

Just so you know, measured pIC50 for CC(C)(C)OC(=O)N[C@@H](CSC(Cl)=C(Cl)Cl)C(=O)N[C@@H]1[C@@H](O)[C@H](O)[C@@H](CO)O[C@H]1SC1CCCCC1 came out at 4.78
